Can you tell me pIC50 for the items I'm about to list?
Target: DYRK1A (Rattus norvegicus, UniProt Q63470)
Answers are plain numbers, as −log10 of the molar value.

MOLECULE SMILES: COc1c(O)cc([C@H]2Oc3cc(O)cc(O)c3C[C@H]2OC(=O)c2cc(O)c(O)c(O)c2)cc1O
OUTCOME MEASURE: pIC50
TEST RESULT: 5.24
--
MOLECULE SMILES: O=C(O[C@@H]1Cc2c(O)cc(O)cc2O[C@@H]1c1ccc(O)c(O)c1)c1cc(O)c(O)c(O)c1
OUTCOME MEASURE: pIC50
TEST RESULT: 6.28
--
MOLECULE SMILES: O=C(O[C@@H]1Cc2c(O)cc(O)cc2O[C@H]1c1ccc(O)c(O)c1)c1cc(O)c(O)c(O)c1
OUTCOME MEASURE: pIC50
TEST RESULT: 6.74

Shift focus to the following entry.
Which pIC50 is listed for COc1c(O)cc(C(=O)O[C@@H]2Cc3c(O)cc(O)cc3O[C@@H]2c2cc(O)c(O)c(O)c2)cc1O ?
4.60
